conditions: 313.15 K; 101.3 kPa; Liquid
Hi, to clarify the labels: criterion met covers mass density from 800 kg/m3 upward, criterion not met covers anything below 800 kg/m3.

# compound, assignedCategory
measured = [
    ("CC(C)O [propan-2-ol]", "criterion not met"),
]

Does mass density meet or surpass 800 kg/m3 for O=C1CCCCC1 [cyclohexanone] ?
criterion met

----------
Recorded viscosity, one value per entry.
details: 313.15 K; 101.3 kPa; Liquid
Just the number in mPa·s, nothing appended.

# compound, resultValue
rows = [
    ("CCCC(C)O (stereo unspecified)", 1.993),
]

// viscosity value for CC(C)O : 1.378

// viscosity value for O=C1CCCCC1 : 1.546

// viscosity value for CCCCCC(C)O (stereo unspecified) : 2.852

// viscosity value for CCC(C)O (stereo unspecified) : 1.733

// viscosity value for CCCCC(C)O (stereo unspecified) : 2.219

----------
Recorded mass density, one value per entry.
conditions: 303.15 K; 101.3 kPa; Liquid
Just the number in kg/m3, nothing appended.

See these solved cases before continuing.
# compound, unitInfo, mass density
measured = [
    ("CCC(C)O (stereo unspecified)", "kg/m3", 798.29),
    ("CCCCCC(C)O (stereo unspecified)", "kg/m3", 809.26),
    ("CCCCC(C)O (stereo unspecified)", "kg/m3", 806.13),
]

// mass density value for CCCC(C)O (stereo unspecified) : 801.21

// mass density value for O=C1CCCCC1 : 937.24

// mass density value for CC(C)O : 776.57

----------
Recorded mass density, one value per entry.
details: 298.15 K; 101.3 kPa; Liquid
Just the number in kg/m3, nothing appended.

See these solved cases before continuing.
# compound, resultValue
rows = [
    ("CCC(C)O (stereo unspecified)", 803.01),
    ("CCCC(C)O (stereo unspecified)", 805.41),
    ("CCCCCC(C)O (stereo unspecified)", 813.18),
]

// mass density value for CC(C)O : 781.09

// mass density value for CCCCC(C)O (stereo unspecified) : 810.14

// mass density value for O=C1CCCCC1 : 941.91

----------
details: 298.15 K; 101.3 kPa; Liquid
Each record is given yes if its reported viscosity is strictly below 3 mPa·s. Records at or above 3 mPa·s are given no.

# compound, assignedCategory
data = [
    ("CCC(C)O (stereo unspecified)", "no"),
    ("CCCC(C)O (stereo unspecified)", "no"),
    ("CCCCC(C)O (stereo unspecified)", "no"),
    ("CCCCCC(C)O (stereo unspecified)", "no"),
    ("CC(C)O", "yes"),
]

Answer whether the compound O=C1CCCCC1 has viscosity strictly less than 3 mPa·s
yes

----------
conditions: 308.15 K; 101.3 kPa; Liquid
quantity: mass density (kg/m3)
Just the number in kg/m3, nothing appended.

# molecule, mass density [kg/m3]
data = [
    ("CCCCC(C)O (stereo unspecified) [2-hexanol]", 802.06),
    ("CCCC(C)O (stereo unspecified) [pentan-2-ol]", 796.64),
    ("CCCCCC(C)O (stereo unspecified) [2-heptanol]", 805.01),
    ("CC(C)O [propan-2-ol]", 771.87),
    ("CCC(C)O (stereo unspecified) [butan-2-ol]", 793.57),
]

Moving on to the next molecule.
// mass density value for O=C1CCCCC1 [cyclohexanone] : 932.67
